# Protocol details: qHTS assay to identify small molecule antagonists of the progesterone receptor (PR) signaling pathway - cell viability counter screen (AID 1346798); note: nearly all actives have a fitted effect of over 50% in size
# Measurement context: PR-UAS-bla HEK293T viability, CellTiter-Glo luminescence, 16 h; series mostly up to 92.4 µM
Records with an inconclusive call do not appear. Calls of active or inactive are those of the source. Calls come from the whole dose curve; as a rule, active = well fitted cell-killing curve with a large enough effect in the repeat runs; inconclusive = weak or mixed curves, or effect the other way; inactive = no such curve, though single readings can be large or run the other way.
Classes used: true (1) = active, false (0) = inactive

>>> assigned_category("Oc1c(Cl)cc(Cl)c(Cl)c1Cc1c(O)c(Cl)cc(Cl)c1Cl")
"true (1)"
>>> assigned_category("CO[Si](OC)(OC)c1ccccc1")
"false (0)"
>>> assigned_category("CCCCOCCOC(=O)c1ccccc1C(=O)OCCOCCCC")
"false (0)"
>>> assigned_category("CCN1CCCC1CNC(=O)c1cc(S(=O)(=O)CC)c(N)cc1OC (centres undefined)")
"false (0)"
>>> assigned_category("C1COC(NC(C2CC2)C2CC2)=N1")
"false (0)"
>>> assigned_category("CC(C(O)c1ccc(O)cc1)N1CCC(Cc2ccccc2)CC1 (centres undefined)")
"false (0)"
>>> assigned_category("CC(C)(C)NCC(O)c1cc(O)cc(O)c1 (centres undefined)")
"false (0)"
>>> assigned_category("CCCCN(CCO)CCCC")
"false (0)"
>>> assigned_category("COC(=O)/C=C/c1ccccc1")
"false (0)"
>>> assigned_category("O=C(O)c1cn(-c2ccc(F)cc2)c2cc(N3CCNCC3)c(F)cc2c1=O")
"false (0)"
>>> assigned_category("CC(N)=O")
"false (0)"
>>> assigned_category("CC(C)(C)c1ccccc1")
"false (0)"
>>> assigned_category("C/C=C/c1ccc(OCC)c(O)c1")
"false (0)"
>>> assigned_category("CCCCC/C=C/CC1CC(=O)OC1=O (centres undefined)")
"false (0)"

###

# Study target: Nuclear receptor subfamily 1 group I member 2 (Homo sapiens)
# Protocol details: Human pregnane X receptor (PXR) small molecule agonists, qHTS assay (AID 1346982); note: nearly all actives have a fitted effect of over 35% in size
# Measurement context: PXR-Luc HepG2, CYP3A4 luciferase reporter, 24 h; series mostly up to 92.4 µM
Inconclusive results are not listed. The source made the active and inactive calls. Calls follow the shape of the dose curve; as a rule, active = well fitted activation curve with a large enough effect in the repeat runs; inconclusive = weak or mixed curves; inactive = no such curve, though single readings can be large or run the other way.
Classes used: 1 = active, -1 = inactive

>>> assigned_category("O=Cc1ccc(Cl)cc1")
-1
>>> assigned_category("COc1ccc(COC(C)=O)cc1")
-1
>>> assigned_category("CCC(C)(Oc1ccc(C2(c3ccc(OC(C)(CC)C(=O)O)cc3)CCCCC2)cc1)C(=O)O (configuration not stated)")
-1
>>> assigned_category("C/C=C/c1ccc(OCC)c(O)c1")
-1
>>> assigned_category("CCOc1ccccc1C(N)=O")
-1
>>> assigned_category("CC(=O)N[C@@H](CS)C(=O)O")
-1
>>> assigned_category("CCCCCCC(O)CCCCCCCCCCC(=O)O (configuration not stated)")
-1
>>> assigned_category("CCOC(=O)C(C)C(C)=O (configuration not stated)")
-1
>>> assigned_category("CC(C)(C)NCC(O)c1cc(O)cc(O)c1 (configuration not stated)")
-1
>>> assigned_category("CC(=O)O[C@]1(C(C)=O)CC[C@H]2[C@@H]3C[C@H](C)C4=CC(=O)CC[C@]4(C)[C@H]3CC[C@@]21C")
1
>>> assigned_category("Cc1ccnc2c1NC(=O)c1cccnc1N2C1CC1")
-1
>>> assigned_category("CC(C)CCOC(=O)c1ccc(N(C)C)cc1")
-1
>>> assigned_category("CN(C)c1ccc2nc3ccc(=[N+](C)C)cc-3sc2c1")
-1
>>> assigned_category("Clc1ccc2c(c1)C(N1CCNCC1)=Nc1ccccc1O2")
-1
>>> assigned_category("CC(C)(C)NCC(O)COc1ccccc1OCC1CCCO1 (configuration not stated)")
-1
>>> assigned_category("COC(=O)c1cccc(C(=O)OC)c1")
-1
>>> assigned_category("C=C(C)C1CC=C(C)C(OC(C)=O)C1 (configuration not stated)")
-1
